Measured IC50 values are reported for all entries that follow.
TESTED_TARGET: cAMP-dependent protein kinase (PKA) (Homo sapiens, UniProt P22694+P17612+P22612)
ASSAY_NOTES: Inhibition of cAMP-dependent protein kinase (PKA).
Format: protein assay
Give your result in nM as a bare value.

- COMPOUND_STRUCTURE_STRING: "COC(=O)CCNCCNS(=O)(=O)c1cccc2cnccc12"
  UNIT_NAME: "nM"
  IC50: 2000

Data request: Which measured IC50 value corresponds to N=C(N)NCCC[C@H](NC(=O)[C@H](CCCNC(=N)N)NC(=O)[C@H](CCCNC(=N)N)NC(=O)[C@H](CCCNC(=N)N)NC(=O)[C@H](CCCNC(=N)N)NC(=O)[C@H](CCCNC(=N)N)NC(=O)[C@H](CO)NC(=O)CCNCCNS(=O)(=O)c1cccc2cnccc12)C(=O)O ?
Data returned: 3

Data request: Which measured IC50 value corresponds to O=S(=O)(c1cccc2cnccc12)N1CCNCC1 ?
Data returned: 6000

Data request: Which measured IC50 value corresponds to NCCNS(=O)(=O)c1cccc2cnccc12 ?
Data returned: 2000
